meta.source: patent US20220281976A1

Target: T1, human CD33 Fc fusion protein (human, UniProt P20138 18-259)
T1 construct: also called hCD33-Fc; human CD33/Fc chimera (R&D Systems)
T1 sequence (P20138 18-259 limits assumed): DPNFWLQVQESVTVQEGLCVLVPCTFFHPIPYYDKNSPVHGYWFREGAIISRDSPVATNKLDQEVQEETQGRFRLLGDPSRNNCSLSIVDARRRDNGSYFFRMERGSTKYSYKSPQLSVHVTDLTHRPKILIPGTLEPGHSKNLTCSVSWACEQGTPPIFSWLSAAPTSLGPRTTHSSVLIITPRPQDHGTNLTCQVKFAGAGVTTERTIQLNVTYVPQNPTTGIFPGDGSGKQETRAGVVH
Test: RBC adhesion to plate-bound CD33-Fc; antibody 1.0 ug/ml;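 also: red blood cells adhering to plate-coated CD33-Fc after 1 h antibody pretreatment, then 1 h at room temperature, bound cells read as peroxidase activity after lysis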
Parameter Percent RBC Binding to CD33: see the listing below.

In: If you can, please state the reported Percent RBC Binding to CD33 value of C-44 (antibody, V domains shown, human IgG1) VH: QLQLQESGPGLVKPSETLSLTCTVSGGSISSSSYAWGWIRQPPGKGLEWIGSIYYSGSTYYNPSLKSRVTISVDTSKNQFSLKLSSVTAADTAVYYCAREGYVAAYGMDVWGQGTTVTVSS VL: DIQMTQSPSSLSASVGDRVTITCRASQSISSYLNWYQQKPGKAPKLLIYAASSLQSGVPSRFSGSGSGTDFTLTISSLQPEDFATYYCQQAYYPPWTFGGGTKVEIK .
Out: 10.5%

Moving on to the next binder.
In: Request the reported Percent RBC Binding to CD33 associated with C-66 (antibody, V domains shown, human IgG1) VH: QLQLQESGPGLVKPSETLSLTCTVSGGSISSSSYYWGWIRQPPGKGLEWIGSIYYSGSTYYNPSLKSRVTISVDTSKNQFSLKLSSVTAADTAVYYCAREVGYPYGMDVWGQGTTVTVSS VL: DIQLTQSPSSLSASVGDRVTITCQASQDISNFLNWYQQKPGKAPKLLIYDASNLETGVPSRFSGSGSGTDFTFTISSLQPEDIATYYCQQYSDLPTFGGGTKVEIK
Out: 19.3%
